- assayed_target: T1, monoclonal antibody 11G8
- T1 construct: Mouse hybridoma monoclonal raised by gene gun immunisation with CXCR7 cDNA
- T1 sequence (VH, as listed by the source, chain 1 of 2): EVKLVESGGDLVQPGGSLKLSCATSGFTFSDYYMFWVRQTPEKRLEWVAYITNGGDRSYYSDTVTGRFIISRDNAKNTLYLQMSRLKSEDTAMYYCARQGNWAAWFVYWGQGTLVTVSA
- T1 sequence (VL, as listed by the source, chain 2 of 2): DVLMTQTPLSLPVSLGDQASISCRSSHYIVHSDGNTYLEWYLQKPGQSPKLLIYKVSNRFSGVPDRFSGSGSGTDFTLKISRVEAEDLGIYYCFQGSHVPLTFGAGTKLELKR
- assay_comment: peptide competition of antibody staining of CXCR7-expressing cells, FACS
reported_metric: binding result

INSERT INTO results (binder, reported_result) VALUES
  ('YSDINWPC (also called Peptide 2.2.3) [SEQ ID NO 14]', 'binds'),
  ('FSDISWPC (also called Peptide 2.2.1) [SEQ ID NO 12]', 'binds'),
  ('FSDISWPCNSSDCIVVD (also called Peptide 2) [SEQ ID NO 2]', 'binds'),
  ('NFSDISWP (also called Peptide 2.3.1) [SEQ ID NO 18]', 'binds'),
  ('DYSEPGNFSDISWPC (also called Peptide 9C4) [SEQ ID NO 11]', 'binds');
